Property: inhibition of SARS-CoV-2 cytopathic effect; scope: individual compounds
Tested on: Vero E6 infected with SARS-CoV-2
Experiment: inhibition of SARS-CoV-2 cytopathic effect; higher = more antiviral protection, active = above 15
Settings: 8.33 nM; 48 h
observable: inhibition of SARS-CoV-2 cytopathic effect (%)

compound	valueUnits	recordedNumber
CN1CCN(c2nc(C3=C(c4c[nH]c5ccccc45)C(=O)NC3=O)c3ccccc3n2)CC1 [sotrastaurin]	%	1.74
CC1=C(/C=C/C(C)=C/C=C/C(C)=C/C(=O)O)C(C)(C)CCC1 [tretinoin]	%	-1.08
COC1CCN(C(=O)c2cc(Cc3n[nH]c(=O)c4ccccc34)ccc2F)CC1	%	7.33
CO[C@H]1/C=C/O[C@@]2(C)Oc3c(C)c(O)c4c(O)c(cc(O)c4c3C2=O)NC(=O)/C(C)=C\C=C\[C@H](C)[C@H](O)[C@@H](C)[C@@H](O)[C@@H](C)[C@H](OC(C)=O)[C@@H]1C [rifamycin-sv]	%	1.12
CCC(NC(C)C)C(O)c1ccc(O)c(O)c1 (stereo not drawn) [isoetharine]	%	0.06
Fc1ccc([C@@H]2CCNC[C@H]2COc2ccc3c(c2)OCO3)cc1 [paroxetine]	%	-2.01
CCOC(=O)c1ncn2c1[C@@H]1CCCN1C(=O)c1cc(OC)ccc1-2	%	0.22
CCOCC(O)COc1ccc(NC(=O)CC[S+](C)C)cc1 (stereo not drawn) [suplatast]	%	-0.4
CCC(=O)O[C@]1(C(=O)CO)CC[C@H]2[C@@H]3CCC4=CC(=O)CC[C@]4(C)[C@H]3CC[C@@]21C	%	0.06
CC(C)SC(=N)N [S-isopropylisothiourea]	%	0.91
NC(=O)CN1CC(c2ccccc2)CC1=O (stereo not drawn) [phenylpiracetam]	%	-10.6
Clc1ccccc1C(c1ccccc1)(c1ccccc1)n1cccn1	%	1.8
CCn1cnc2c(Nc3cccc(Cl)c3)nc(N[C@@H]3CCCC[C@@H]3N)nc21	%	0.37
CC1=C(/C=C/C(C)=C/C=C/C(C)=C/C=C/C=C(C)/C=C/C=C(C)/C=C/C2=C(C)C(=O)[C@@H](O)CC2(C)C)C(C)(C)C[C@H](O)C1=O [astaxanthin]	%	-11
CCCC(O)C(CC)CO (stereo not drawn) [2-ethyl-1,3-hexanediol]	%	0.49
CO[C@@]1(NC(=O)C(C(=O)O)c2ccc(O)cc2)C(=O)N2C(C(=O)O)=C(CSc3nnnn3C)CO[C@@H]21 (stereo partly drawn) [moxalactam]	%	-1.13
CNCC(=O)O [sarcosine]	%	0.73
CCCCOc1ccc(-c2cncc(C(=O)NCc3cccnc3N3CCOCC3)c2)cc1Cl	%	-2.48
